Reported viability at 28.5 h, 10 µM is given for each of the following molecules.
assay: in vitro; settings: human, hela cells, % viability
readout.type: viability at 28.5 h, 10 µM (%)

> print(dat)
                                    molecule                readout.type  assay.result
 1          Fc1ccc(Nc2cncc(-c3cccs3)n2)cc1Cl  viability at 28.5 h, 10 µM          94.3
 2           CCN(CC)CCNc1c(N)c(=O)oc2ccccc12  viability at 28.5 h, 10 µM          91.7
 3  Cc1nn(C)cc1CN(Cc1ccccc1F)CC1CCCO1 (stereo not shown)  viability at 28.5 h, 10 µM           106
 4  CCOc1ccc(CC(=O)NC[C@H]2CC[C@H](c3cc(C(N)=O)c4ccccc4n3)CC2)cc1  viability at 28.5 h, 10 µM          92.2
 5       COc1ccccc1-c1nnc(SCC(=O)Nc2nccs2)o1  viability at 28.5 h, 10 µM           107
 6     COc1ccc(C(=O)c2sc3nc(C)cc(C)c3c2N)cc1  viability at 28.5 h, 10 µM          87.7
 7  COC1CCC(C(=O)N2CCC(COc3ccc(-c4ccc(S(C)(=O)=O)cc4)cn3)CC2)CC1 (stereo not shown)  viability at 28.5 h, 10 µM          80.3
 8  CC(C)c1ccc(C(C)NC(=O)Cn2cccc(C(=O)NC3CCCCC3)c2=O)cc1 (stereo not shown)  viability at 28.5 h, 10 µM           119
 9     CCOC(=O)N1CCN(C(=O)c2oc3ccccc3c2C)CC1  viability at 28.5 h, 10 µM          92.4
10  Cc1nc2ccccc2n1CCNC(=O)c1ccccc1SCc1ccc(C#N)cc1  viability at 28.5 h, 10 µM           106
11  O=C(c1cccc(F)c1)N1CCC(c2nnc3n2CCCCC3)CC1  viability at 28.5 h, 10 µM           103
12  O=C(NC(c1ccc(Cl)cc1)c1ccsc1)C1CCN(CCCN2C(=O)CC3CCCCC3C2=O)CC1 (stereo not shown)  viability at 28.5 h, 10 µM          85.3
13  CN(C)CCN(C)c1cc(-c2cccc(-c3ccccc3)c2)ncn1  viability at 28.5 h, 10 µM          99.4
14  CCOc1ccc(-c2ccnc(NCC(C)(C)CO)n2)cc1C(=O)O  viability at 28.5 h, 10 µM          88.6
15  O=C(c1ccc2occc2c1)N1CCCC2(CCN(Cc3ccccc3)C2)C1 (stereo not shown)  viability at 28.5 h, 10 µM           105
16       O=C(O)c1ccc(S(=O)(=O)NCc2ccccc2)cc1  viability at 28.5 h, 10 µM           102
17  O=C(CO)N1CC2(CCN(Cc3ccc4ccccc4c3)CC2)c2ccccc21  viability at 28.5 h, 10 µM          88.7
18      CN(CC(=O)O)S(=O)(=O)c1ccc2c(c1)OCCO2  viability at 28.5 h, 10 µM          95.8
19  CS(=O)(=O)c1ccc(C(=O)N(Cc2ccccc2)c2ccc(S(=O)(=O)N3CCOC3=O)cc2)cc1  viability at 28.5 h, 10 µM           110

Each recorded value in this set is attributed to paper PMC12040169.
